- Tested on: V79MZh
- experimental protocol: Selectivity factor, ratio of IC50 for human CYP11B1 to IC50 for human CYP11B2 expressed in V79MZh cells
- Assay type: cell-based
property name: Ratio IC50
Form: value (number only, do not type unit).

// query Ratio IC50 value for entry CN1C(=O)CCc2cc(-c3cccnc3)c(OC3CCCC3)cc21
1.5

// query Ratio IC50 value for entry COc1cc2c(cc1-c1cccnc1)CCC(=O)N2
9

// query Ratio IC50 value for entry O=C1CCc2cc(-c3cccnc3)c(OC3CCCC3)cc2N1
0.6

// query Ratio IC50 value for entry CCOc1cc2c(cc1-c1cccnc1)CCC(=O)N2C
41

// query Ratio IC50 value for entry O=C1CCc2cc(-c3cccnc3)cc(-c3ccccc3)c2N1
13.9
